- ASSAY NOTES: Therapeutic index, CC50 for human 293T cells to EC50 for G-pseudotyped HIV
- Format: cell-based
- EXPERIMENTAL PARAMETERS: read-out: Ratio CC50/EC50
selectivity ratio strictly under 200 means class 1; at 200 or over means class 0.

Regarding Cc1ccccc1S(=O)(=O)Nc1nc(-c2nnc(Cc3ccc(F)cc3)o2)c(O)c2ncccc12 , kindly confirm whether its selectivity ratio is beneath 200.
class 1

Also check CS(=O)(=O)c1cccc(-c2nc(-c3nnc(Cc4ccc(F)cc4)o3)c(O)c3ncccc23)c1
class 0

Also check CN(C)S(=O)(=O)Nc1nc(-c2nnc(Cc3ccc(F)cc3)o2)c(O)c2ncccc12
class 1

Also check Nc1cccc(-c2nc(-c3nnc(Cc4ccc(F)cc4)o3)c(O)c3ncccc23)c1
class 0

Also check CC(=O)Nc1cccc(-c2nc(-c3nnc(Cc4ccc(F)cc4)o3)c(O)c3ncccc23)c1
class 0
